Listed here are molecules together with their documented IC50.
target: CXCR7 receptor (Homo sapiens (Human), UniProt P25106); experiment: Serum Binding Analysis: displacement of 125I-labeled SDF-1 from CXCR7 in 100% human serum; details: 125I SDF-1 displacement in 100% human serum, MCF-7 and/or MDA-MB-435S CXCR7 transfected cells, 3 hrs at 4° C.; read-out: Avg Ser IC50
Sequence (P25106 whole entry): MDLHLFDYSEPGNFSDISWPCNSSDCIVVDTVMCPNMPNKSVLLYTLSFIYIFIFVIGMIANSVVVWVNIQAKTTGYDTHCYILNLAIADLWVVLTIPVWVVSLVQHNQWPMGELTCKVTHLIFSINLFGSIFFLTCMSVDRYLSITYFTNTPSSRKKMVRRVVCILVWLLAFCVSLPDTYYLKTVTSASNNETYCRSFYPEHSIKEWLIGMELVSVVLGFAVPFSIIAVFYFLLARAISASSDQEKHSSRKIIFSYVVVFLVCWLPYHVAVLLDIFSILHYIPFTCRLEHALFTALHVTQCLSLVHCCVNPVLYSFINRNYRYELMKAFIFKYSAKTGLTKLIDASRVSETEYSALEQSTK

Some entries whose results are on file:
>  <MOLECULE>
Cc1cn2cccc2c(N2CC[C@H](NC(=O)c3noc(-c4ccccc4)n3)C2)n1 [Compound 1.021]

>  <IC50>
≤ 500 nM

$$$$
>  <MOLECULE>
O=C(NC1(CO)CCN(c2nccn3cccc23)C1)c1ccn(-c2ccc(Cl)cc2)n1 (stereo not shown) [Compound 1.074]

>  <IC50>
≤ 500 nM

$$$$
>  <MOLECULE>
O=C(N[C@H]1CCN(c2nccn3ncnc23)C1)c1ccn(-c2ccc(F)cc2)n1 [Compound 1.067]

>  <IC50>
≤ 500 nM

$$$$
>  <MOLECULE>
Cc1cn2cccc2c(N2CC[C@H](NC(=O)c3cn(-c4ccccc4)cn3)C2)n1 [Compound 1.030]

>  <IC50>
≤ 500 nM

$$$$
>  <MOLECULE>
Cc1cn2cccc2c(N2CC[C@H](NC(=O)c3ncn(-c4ccccc4)n3)C2)n1 [Compound 1.040]

>  <IC50>
≤ 500 nM

$$$$

The recorded IC50 for entry O=C(N[C@H]1CCN(c2nccn3ccnc23)C1)c1ncn(-c2cccc(F)c2)n1 [Compound 1.016] equals ≤ 500 nM

According to the records, this molecule Cc1nc(C(=O)N[C@H]2CCN(c3nccn4ccnc34)C2)nn1-c1ccc(F)cc1 [Compound 1.001] displays IC50 of ≤ 500 nM

----------
molecular target: CXCR7 receptor (Homo sapiens (Human), UniProt P25106); test: Buffer Binding Analysis: displacement of 125I-labeled SDF-1 from CXCR7; details: 125I SDF-1 displacement, buffer binding medium, MCF-7 and/or MDA-MB-435S CXCR7 transfected cells, 3 hr at 4° C.; read-out: Avg Bind IC50
# IC50 annotations

>  <MOLECULE>
O=C(N[C@H]1CCN(c2nccn3cccc23)C1)c1noc(C2CCOCC2)n1 [Compound 1.082]

>  <IC50>
≤ 500 nM

$$$$

The measured IC50 associated with O=C(N[C@H]1CCN(c2nccn3cccc23)C1)c1noc(-c2ccccc2)n1 [Compound 1.120] reads ≤ 500 nM

The molecule listed as Cc1ccn2ccnc(N3CC[C@H](NC(=O)c4ccn(-c5ccc(F)cc5)n4)C3)c12 [Compound 1.106] has a reported IC50 of ≤ 500 nM

So for Cc1ccn2ccnc(N3CC[C@H](NC(=O)c4ccn(-c5ccc(Cl)cc5)n4)C3)c12 [Compound 1.104] , the logged IC50 turned out to be ≤ 500 nM

Lab book: IC50 of Cc1cc(Cl)ccc1-n1ccc(C(=O)N[C@H]2CCN(c3nccn4cccc34)C2)n1 [Compound 1.094] noted as ≤ 500 nM

Field IC50 (entry Cc1ccn2ccnc(N3CC[C@H](NC(=O)c4csc(-c5ccc(F)cc5)n4)C3)c12 [Compound 1.108] ) reads ≤ 500 nM

# IC50 (molecule: O=C(N[C@H]1CCN(c2nccn3ccnc23)C1)c1csc(N2CCC(O)CC2)n1 [Compound 1.079] ) is ≤ 500 nM

Entry Cc1ccn2ccnc(N3CC[C@H](NC(=O)c4ncn(-c5ccccc5)n4)C3)c12 [Compound 1.117] — recorded IC50 = ≤ 500 nM
